System: Echinochloa oryzicola
Assay: Herbicidal activity against Echinochloa oryzicola at 1 g a.i/a measured after 3 weeks
Assay type: functional, organism-based
Calls of active or inactive are those of the source. The rule behind the calls is not given here.
Possible outcomes: active, inactive

INSERT INTO assay_data (molecule, class_label) VALUES
  ('C/C=C(\c1ccccc1)N(CCCC)C(=O)CCl', 'inactive'),
  ('CC(C)=C(c1ccccc1)N(Cc1ccccc1)C(=O)CCl', 'active'),
  ('CCCN(C(=O)CCl)C(=C(C)C)c1ccccc1', 'inactive'),
  ('CCCCCCN(C(=O)CCl)C(=C(C)C)c1ccccc1', 'active'),
  ('C=C(c1ccccc1)N(C(=O)CCl)c1c(C)cccc1C', 'active'),
  ('C=C(c1ccccc1)N(C(=O)CCl)c1c(CC)cccc1CC', 'inactive'),
  ('CC(C)=C(c1ccccc1)N(C)C(=O)CCl', 'active'),
  ('C=C(c1cccc(Br)c1)N(C(=O)CCl)c1c(C)cccc1C', 'inactive'),
  ('CC=C(c1ccccc1)N(C(=O)CCl)c1c(C)cccc1C (mixture of isomers)', 'inactive'),
  ('C=C(c1ccc(Cl)cc1)N(C(=O)CCl)c1c(C)cccc1C', 'inactive'),
  ('CC(C)=C(c1ccccc1)N(Cc1ccco1)C(=O)CCl', 'active'),
  ('C=C(c1ccccc1Cl)N(C(=O)CCl)c1c(C)cccc1C', 'active'),
  ('C=C(c1ccccc1OC)N(C(=O)CCl)c1c(C)cccc1C', 'active'),
  ('C=CCN(C(=O)CCl)C(=C(C)C)c1ccccc1', 'active');
